As shown below, each of these binders has a reported [35S]GTPγS % inhibition of max, GRO-α value.
EXPERIMENTAL TARGET: T1, Human CXCR2 (human, UniProt P25025 1-360)
T1 sequence: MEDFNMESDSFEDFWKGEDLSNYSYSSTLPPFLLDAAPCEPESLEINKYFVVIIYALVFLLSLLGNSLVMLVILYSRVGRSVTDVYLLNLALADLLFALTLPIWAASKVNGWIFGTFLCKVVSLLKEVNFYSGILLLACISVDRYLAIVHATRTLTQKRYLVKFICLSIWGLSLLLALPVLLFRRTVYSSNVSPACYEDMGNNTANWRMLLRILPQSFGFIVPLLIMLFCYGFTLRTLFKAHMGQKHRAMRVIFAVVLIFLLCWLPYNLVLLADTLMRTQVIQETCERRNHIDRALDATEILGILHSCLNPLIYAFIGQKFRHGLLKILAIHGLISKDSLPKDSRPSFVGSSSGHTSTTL
METHOD DESCRIPTION: cell-based or functional assay
Include the unit after the number when you answer.

>  <BINDER>
CXCR20028 (other, not shown: small tags and cut ends) EVQLVESGGGLVQPGGSLRLSCVASGSIVRINTMGWYRQTPGKQRELVADITSGGNINYIDAVKGRFTISRDNTKNTVYLQMNSLKPEDTAVYYCNAEIVVLVGVWTQRARTGNYWGQGTQVTVSSGGGGSGGGGSGGGGSGGGGSGGGGSGGGGSGGGGSEVQLVESGGGLVQAGGSLTLSCAVSGSTFRINTMGWYRRAPGKQRELVAARDRGGYINYVDSVKGRFTVSRDNAKPTMYLQMNSLKPEDTAVYYCHAGTQDRTGRNFDRWGQGTQVTVSS

>  <OBSERVATION TYPE>
[35S]GTPγS % inhibition of max, GRO-α

>  <RESULT>
100%

$$$$

Now for the binder whose [35S]GTPγS % inhibition of max, GRO-α we want.
Query :: For the binder CXCR20030 (other, not shown: small tags and cut ends) EVQLVESGGGLVQAGGSLRLSCAASGRTFSDYAMGWFRQAPGKEREFVAAITWNGGRVFYTASVKGRFTISRDNAKNTMYLQMNSLKPEDTAVYYCAADKDRRTDYLGHPVAYWGQGTQVTVSSGGGGSGGGGSGGGGSGGGGSGGGGSGGGGSGGGGSEVQLVESGGGLVQAGGSLTLSCAVSGSTFRINTMGWYRRAPGKQRELVAARDRGGYINYVDSVKGRFTVSRDNAKPTMYLQMNSLKPEDTAVYYCHAGTQDRTGRNFDRWGQGTQVTVSS , what [35S]GTPγS % inhibition of max, GRO-α is on record?
Result :: 100%
